Hello, the source for this data is patent US7842469B2, in case you need it.

Assay: Luciferase activity of purified RLuc mutants (light output integrated over 10 s, luminometer)
Type: biochemical
Details: coelenterazine-n; relative to native enzyme
Attribute measured: Activity (relative to RLuc) n
I only need the number, thanks.

Molecule	Activity (relative to RLuc) n
C124A/M295I: RLuc mutant C124A/M295I (protein) MASKVYDPEQRKRMITGPQWWARCKQMNVLDSFINYYDSEKHAENAVIFLHGNAASSYLWRHVVPHIEPVARCIIPDLIGMGKSGKSGNGSYRLLDHYKYLTAWFELLNLPKKIIFVGHDWGAALAFHYSYEHQDKIKAIVHAESVVDVIESWDEWPDIEEDIALIKSEEGEKMVLENNFFVETMLPSKIMRKLEPEEFAAYLEPFKEKGEVRRPTLSWPREIPLVKGGKPDVVQIVRNYNAYLRASDDLPKMFIESDPGFFSNAIVEGAKKFPNTEFVKVKGLHFSQEDAPDEIGKYIKSFVERVLKNEQ	0.72
C124A/S257G: RLuc mutant C124A/S257G (protein) MASKVYDPEQRKRMITGPQWWARCKQMNVLDSFINYYDSEKHAENAVIFLHGNAASSYLWRHVVPHIEPVARCIIPDLIGMGKSGKSGNGSYRLLDHYKYLTAWFELLNLPKKIIFVGHDWGAALAFHYSYEHQDKIKAIVHAESVVDVIESWDEWPDIEEDIALIKSEEGEKMVLENNFFVETMLPSKIMRKLEPEEFAAYLEPFKEKGEVRRPTLSWPREIPLVKGGKPDVVQIVRNYNAYLRASDDLPKMFIEGDPGFFSNAIVEGAKKFPNTEFVKVKGLHFSQEDAPDEMGKYIKSFVERVLKNEQ	1.1

Enquiry: Form field: reported Activity (relative to RLuc) n of C124A/F199M: RLuc mutant C124A/F199M (protein) MASKVYDPEQRKRMITGPQWWARCKQMNVLDSFINYYDSEKHAENAVIFLHGNAASSYLWRHVVPHIEPVARCIIPDLIGMGKSGKSGNGSYRLLDHYKYLTAWFELLNLPKKIIFVGHDWGAALAFHYSYEHQDKIKAIVHAESVVDVIESWDEWPDIEEDIALIKSEEGEKMVLENNFFVETMLPSKIMRKLEPEEMAAYLEPFKEKGEVRRPTLSWPREIPLVKGGKPDVVQIVRNYNAYLRASDDLPKMFIESDPGFFSNAIVEGAKKFPNTEFVKVKGLHFSQEDAPDEMGKYIKSFVERVLKNEQ
Return: 0.49

Enquiry: Form field: reported Activity (relative to RLuc) n of C124A/F180A: RLuc mutant C124A/F180A (protein) MASKVYDPEQRKRMITGPQWWARCKQMNVLDSFINYYDSEKHAENAVIFLHGNAASSYLWRHVVPHIEPVARCIIPDLIGMGKSGKSGNGSYRLLDHYKYLTAWFELLNLPKKIIFVGHDWGAALAFHYSYEHQDKIKAIVHAESVVDVIESWDEWPDIEEDIALIKSEEGEKMVLENNAFVETMLPSKIMRKLEPEEFAAYLEPFKEKGEVRRPTLSWPREIPLVKGGKPDVVQIVRNYNAYLRASDDLPKMFIESDPGFFSNAIVEGAKKFPNTEFVKVKGLHFSQEDAPDEMGKYIKSFVERVLKNEQ
Return: 0.01

Enquiry: Form field: reported Activity (relative to RLuc) n of C124A/K136R: RLuc mutant C124A/K136R (protein) MASKVYDPEQRKRMITGPQWWARCKQMNVLDSFINYYDSEKHAENAVIFLHGNAASSYLWRHVVPHIEPVARCIIPDLIGMGKSGKSGNGSYRLLDHYKYLTAWFELLNLPKKIIFVGHDWGAALAFHYSYEHQDRIKAIVHAESVVDVIESWDEWPDIEEDIALIKSEEGEKMVLENNFFVETMLPSKIMRKLEPEEFAAYLEPFKEKGEVRRPTLSWPREIPLVKGGKPDVVQIVRNYNAYLRASDDLPKMFIESDPGFFSNAIVEGAKKFPNTEFVKVKGLHFSQEDAPDEMGKYIKSFVERVLKNEQ
Return: 1.9
